organism: Sus scrofa; experiment: Binding affinity to pig kidney Na+/K+-ATPase assessed as inorganic phosphate release after 2 hrs
Threshold rule: Kapp greater than or equal to 2 µM is Yes; below that, No.

smiles_str	label
C[C@]12CC[C@H](SCCOCCO)C[C@H]1CC[C@@H]1[C@@H]2CC[C@]2(C)[C@@H](C3=CC(=O)OC3)CC[C@]12O	No
C[C@]12CC[C@H](SCCO)C[C@H]1CC[C@@H]1[C@@H]2CC[C@]2(C)[C@@H](C3=CC(=O)OC3)CC[C@]12O	No
C[C@]12CC[C@H](O)C[C@H]1CC[C@@H]1[C@@H]2CC[C@]2(C)[C@@H](C3=CC(=O)OC3)CC[C@]12O	No

Record C[C@]12CC[C@H](SCCOCCOCCOCCO)C[C@H]1CC[C@@H]1[C@@H]2CC[C@]2(C)[C@@H](C3=CC(=O)OC3)CC[C@]12O ; criterion: Kapp no lower than 2 µM. Met?
Yes

hey, is Kapp for this one >= 2 µM? C[C@]12CC[C@H](SCCOCCS[C@H]3CC[C@@]4(C)[C@H](CC[C@@H]5[C@@H]4CC[C@]4(C)[C@@H](C6=CC(=O)OC6)CC[C@]54O)C3)C[C@H]1CC[C@@H]1[C@@H]2CC[C@]2(C)[C@@H](C3=CC(=O)OC3)CC[C@]12O
Yes

Reported Kapp at or above 2 µM? C[C@]12CC[C@H](SCCOCCOCCS[C@H]3CC[C@@]4(C)[C@H](CC[C@@H]5[C@@H]4CC[C@]4(C)[C@@H](C6=CC(=O)OC6)CC[C@]54O)C3)C[C@H]1CC[C@@H]1[C@@H]2CC[C@]2(C)[C@@H](C3=CC(=O)OC3)CC[C@]12O
Yes

Dear colleague, could you confirm whether C[C@]12CC[C@H](SCCOCCOCCO)C[C@H]1CC[C@@H]1[C@@H]2CC[C@]2(C)[C@@H](C3=CC(=O)OC3)CC[C@]12O has Kapp at or above 2 µM?
No

hey, is Kapp for this one >= 2 µM? C[C@]12CC[C@H](SCCOCCOCCOCCS[C@H]3CC[C@@]4(C)[C@H](CC[C@@H]5[C@@H]4CC[C@]4(C)[C@@H](C6=CC(=O)OC6)CC[C@]54O)C3)C[C@H]1CC[C@@H]1[C@@H]2CC[C@]2(C)[C@@H](C3=CC(=O)OC3)CC[C@]12O
Yes

Check this molecule for Kapp at or above 2 µM: C[C@]12CC[C@H](S)C[C@H]1CC[C@@H]1[C@@H]2CC[C@]2(C)[C@@H](C3=CC(=O)OC3)CC[C@]12O
No

// inclusive: Kapp at least 2 µM? input: C[C@H]1O[C@@H](O[C@H]2[C@@H](O)C[C@H](O[C@H]3[C@@H](O)C[C@H](O[C@H]4CC[C@@]5(C)[C@H](CC[C@@H]6[C@@H]5CC[C@]5(C)[C@@H](C7=CC(=O)OC7)CC[C@]65O)C4)O[C@@H]3C)O[C@@H]2C)C[C@H](O)[C@@H]1O
No

Has C[C@]12CC[C@H](SCCS[C@H]3CC[C@@]4(C)[C@H](CC[C@@H]5[C@@H]4CC[C@]4(C)[C@@H](C6=CC(=O)OC6)CC[C@]54O)C3)C[C@H]1CC[C@@H]1[C@@H]2CC[C@]2(C)[C@@H](C3=CC(=O)OC3)CC[C@]12O a recorded Kapp greater than or equal to 2 µM?
Yes

Data origin, for the record: ChEMBL document CHEMBL1765087
